biological target: T1, soluble human FcRn (human, UniProt P55899 24-297; P61769 21-119, biotinylated (Sulfo-NHS-LC-Biotin) in the ELISA; amine-coupled to CM5 chip in SPR); assay: ELISA, competitor human IgG
T1 construct: also called shFcRn; biotinylated shFcRn
T1 sequence (P55899 24-297 limits assumed, chain 1 of 2): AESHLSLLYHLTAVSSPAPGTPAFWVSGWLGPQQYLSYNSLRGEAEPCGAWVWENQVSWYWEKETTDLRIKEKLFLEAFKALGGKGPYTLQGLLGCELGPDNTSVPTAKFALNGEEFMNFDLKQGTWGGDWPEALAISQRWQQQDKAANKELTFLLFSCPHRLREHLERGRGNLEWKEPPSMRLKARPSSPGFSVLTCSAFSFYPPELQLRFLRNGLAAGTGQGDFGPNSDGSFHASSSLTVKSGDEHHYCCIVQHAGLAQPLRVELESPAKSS
T1 sequence (P61769 21-119 limits assumed, chain 2 of 2): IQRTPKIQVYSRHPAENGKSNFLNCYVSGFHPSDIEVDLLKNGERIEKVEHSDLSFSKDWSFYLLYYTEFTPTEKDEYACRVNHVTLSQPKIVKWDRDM
Numbered stars: 1 amine (or outer) side, 2 acyl side, 3 side chain; on linkers, the order of the positions; unused ones are H or OH. Bridge positions count the residues as written; N and C are the ends. Square brackets hold non-standard residues; d marks the D form. Ends that are not written are not given here. X2 = (3R)‑3‑amino‑1‑carboxymethyl‑valerolactam, O=C1[C@H](N[*:1])CCCN1CC(=O)[*:2]; NMeL = CN[C@@H](CC(C)C)C(=O)O; Pen = CC(C)(S)[C@H](N)C(=O)O; NMeA = CN[C@@H](C)C(=O)O
parameter: IC50

Entry under review: RFXTGHFXLYPC (Pen at 3; X at 8 = 5,5-bicyclic dipeptide mimic (drawing CHEM-US-00086); disulfide; C-terminal amide) [Peptide No. 198] . Reported IC50? 23000 nM

Entry under review: RFXTGHFXLYPC (Pen at 3; X at 8 = 3(S)-3-amino-2-oxo-1-azepine acetic acid; NMeLeu at 9; disulfide; C-terminal amide) [Peptide No. 239] . Reported IC50? 620 nM

Entry under review: RFXTGHFXLYPC (Pen at 3; X at 8 = 6,5-bicyclic dipeptide mimic; disulfide; C-terminal amide) [Peptide No. 204] . Reported IC50? 2200 nM

Entry under review: RFXTGHFXLYPC (Pen at 3; X at 8 = (3S)-3-amino-2-oxo-1-piperidine-acetic acid; disulfide; C-terminal amide) [Peptide No. 193] . Reported IC50? 7300 nM

Entry under review: RF[Pen][NMeA]GHF[X2][NMeL]YPC-NH2 (disulfide 3-12; N-terminus assumed; SMILES CC(C)C[C@H]1C(=O)N[C@@H](Cc2ccc(O)cc2)C(=O)N2CCC[C@H]2C(=O)N[C@H](C(N)=O)CSSC(C)(C)[C@H](NC(=O)[C@H](Cc2ccccc2)NC(=O)[C@@H](N)CCCNC(=N)N)C(=O)N(C)[C@@H](C)C(=O)NCC(=O)N[C@@H](Cc2c[nH]cn2)C(=O)N[C@@H](Cc2ccccc2)C(=O)N[C@@H]2CCCN(CC(=O)N1C)C2=O) [Peptide No. 228] . Reported IC50? 1100 nM
